- System: Vero
- METHOD_NOTES: cells
- Type: functional
- DETAILS: Chlorocebus sabaeus
The source made the active and inactive calls.
Answer each item with its documented CC50.

Query :: Entry under review: CC(C)N1C/C(=C/c2ccsc2)C(=O)/C(=C/c2ccsc2)C1 . Reported CC50?
Result :: 5.33 µM (active)

Query :: Entry Cc1ccc(/C=C/C(=O)c2c(C)nc3ccccn23)cc1 please
Result :: 17.6 µM (active)

Query :: How about Cc1ccccc1C(=O)Nc1ccc2c(c1)CCCN2C(=O)c1cccs1 ?
Result :: > 25 µM (active)

Query :: # repeat for CC1CC(N(C(=O)c2ccc(Cl)cc2)c2ccccc2)c2ccccc2N1C(=O)c1ccco1 (centres undefined)
Result :: 15.1 µM (active)

----------
- METHOD_NOTES: Luminescence Cell-Based Dose Response HTS to Identify Activators of Luciferase Translation or Activity in H4 […] Cells. [Related pubchem assays: 1829 (Project Summary), 1814 (Primary HTS)]
- Type: functional
The source made the active and inactive calls.
READOUT: EC50

Query :: Consider the compound CC1CC1C(=O)OCC(=O)NC(=O)NC12CC3CC(CC(C3)C1)C2 (stereo not given) and give its measured EC50.
Result :: 21.1 µM (active)

Query :: Follow-up item: C[C@H]1CCC[C@@H](O)CCC/C=C/c2cc(O)cc(O)c2C(=O)O1
Result :: > 120 µM (not active)

Query :: Another compound to check: COc1ccccc1C(=O)NC(=S)N1CCCc2ccccc21
Result :: 9.63 µM (active)

Query :: And the next one, COC(=O)c1ccc(COC(=O)c2nn(C)c(=O)c3ccccc23)cc1 ?
Result :: 14.1 µM (active)

Query :: Can you check C=CCOc1ccc(C(=O)C2=C(O)C(=O)N(CCCn3ccnc3)C2c2cccs2)cc1 (stereo not given) next?
Result :: 12 µM (active)

----------
Would you kindly list IC50 for each of these molecules?
- MEASUREMENT_TARGET: Voltage-gated N-type calcium channel alpha-1B subunit/Amyloid beta A4 precursor protein-binding family A member 1 (Homo sapiens, UniProt Q00975+Q02410)
- Sequence (Q00975 whole entry): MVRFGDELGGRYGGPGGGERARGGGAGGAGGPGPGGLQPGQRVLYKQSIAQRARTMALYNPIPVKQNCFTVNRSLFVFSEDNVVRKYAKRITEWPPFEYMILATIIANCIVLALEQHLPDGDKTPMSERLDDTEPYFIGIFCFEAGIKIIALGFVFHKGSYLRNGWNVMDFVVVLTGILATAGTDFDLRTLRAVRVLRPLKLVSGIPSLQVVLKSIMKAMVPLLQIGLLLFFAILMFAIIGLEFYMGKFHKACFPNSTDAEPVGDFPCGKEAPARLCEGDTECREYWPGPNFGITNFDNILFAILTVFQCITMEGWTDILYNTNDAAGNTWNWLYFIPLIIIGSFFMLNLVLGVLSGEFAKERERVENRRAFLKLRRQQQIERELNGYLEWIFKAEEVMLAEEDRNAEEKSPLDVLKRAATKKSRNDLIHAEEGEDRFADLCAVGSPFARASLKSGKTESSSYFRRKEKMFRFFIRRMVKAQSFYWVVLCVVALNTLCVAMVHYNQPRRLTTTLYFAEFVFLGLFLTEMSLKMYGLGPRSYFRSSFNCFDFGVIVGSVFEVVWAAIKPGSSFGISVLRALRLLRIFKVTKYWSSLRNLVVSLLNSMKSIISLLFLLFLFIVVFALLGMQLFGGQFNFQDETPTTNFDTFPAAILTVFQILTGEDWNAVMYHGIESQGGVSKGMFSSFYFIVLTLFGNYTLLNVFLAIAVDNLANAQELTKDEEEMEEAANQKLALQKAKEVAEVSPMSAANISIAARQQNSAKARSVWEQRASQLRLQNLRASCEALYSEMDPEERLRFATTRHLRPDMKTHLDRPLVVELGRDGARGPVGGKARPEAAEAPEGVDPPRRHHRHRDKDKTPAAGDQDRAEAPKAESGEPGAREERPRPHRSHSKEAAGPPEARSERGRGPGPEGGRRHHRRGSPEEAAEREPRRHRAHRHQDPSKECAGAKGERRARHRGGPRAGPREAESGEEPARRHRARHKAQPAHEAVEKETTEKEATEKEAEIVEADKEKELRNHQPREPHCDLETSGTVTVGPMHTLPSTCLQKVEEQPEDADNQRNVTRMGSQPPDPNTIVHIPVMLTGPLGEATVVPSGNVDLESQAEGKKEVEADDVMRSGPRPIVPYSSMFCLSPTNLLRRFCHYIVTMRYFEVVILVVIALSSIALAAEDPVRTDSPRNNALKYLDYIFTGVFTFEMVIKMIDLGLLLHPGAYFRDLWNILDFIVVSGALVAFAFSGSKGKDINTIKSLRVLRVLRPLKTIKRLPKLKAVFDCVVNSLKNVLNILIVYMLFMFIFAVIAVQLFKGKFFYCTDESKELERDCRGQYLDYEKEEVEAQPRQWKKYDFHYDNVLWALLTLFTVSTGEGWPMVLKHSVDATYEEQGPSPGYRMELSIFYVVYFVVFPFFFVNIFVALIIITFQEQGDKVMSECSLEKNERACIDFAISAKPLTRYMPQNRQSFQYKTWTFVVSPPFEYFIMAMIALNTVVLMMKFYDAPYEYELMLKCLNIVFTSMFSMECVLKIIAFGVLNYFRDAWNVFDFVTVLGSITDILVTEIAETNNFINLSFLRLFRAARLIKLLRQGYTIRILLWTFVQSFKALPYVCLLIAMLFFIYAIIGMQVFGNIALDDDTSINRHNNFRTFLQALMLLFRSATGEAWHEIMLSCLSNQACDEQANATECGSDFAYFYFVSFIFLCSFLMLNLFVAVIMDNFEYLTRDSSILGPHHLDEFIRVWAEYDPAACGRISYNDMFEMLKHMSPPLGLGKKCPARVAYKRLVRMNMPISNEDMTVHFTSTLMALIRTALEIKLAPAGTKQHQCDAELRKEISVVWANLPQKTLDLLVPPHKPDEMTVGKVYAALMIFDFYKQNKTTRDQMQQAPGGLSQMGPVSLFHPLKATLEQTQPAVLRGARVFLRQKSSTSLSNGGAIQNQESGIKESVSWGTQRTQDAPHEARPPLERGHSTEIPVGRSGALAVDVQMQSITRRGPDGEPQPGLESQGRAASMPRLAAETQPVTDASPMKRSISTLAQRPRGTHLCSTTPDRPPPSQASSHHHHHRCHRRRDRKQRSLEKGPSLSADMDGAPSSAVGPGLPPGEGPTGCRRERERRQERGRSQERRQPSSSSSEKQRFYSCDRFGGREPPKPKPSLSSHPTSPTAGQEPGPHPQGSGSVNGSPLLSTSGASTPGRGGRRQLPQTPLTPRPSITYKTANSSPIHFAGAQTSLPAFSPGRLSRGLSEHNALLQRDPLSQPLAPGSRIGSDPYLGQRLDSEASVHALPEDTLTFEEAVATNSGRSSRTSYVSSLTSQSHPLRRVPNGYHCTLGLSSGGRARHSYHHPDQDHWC
- Sequence (Q02410 whole entry): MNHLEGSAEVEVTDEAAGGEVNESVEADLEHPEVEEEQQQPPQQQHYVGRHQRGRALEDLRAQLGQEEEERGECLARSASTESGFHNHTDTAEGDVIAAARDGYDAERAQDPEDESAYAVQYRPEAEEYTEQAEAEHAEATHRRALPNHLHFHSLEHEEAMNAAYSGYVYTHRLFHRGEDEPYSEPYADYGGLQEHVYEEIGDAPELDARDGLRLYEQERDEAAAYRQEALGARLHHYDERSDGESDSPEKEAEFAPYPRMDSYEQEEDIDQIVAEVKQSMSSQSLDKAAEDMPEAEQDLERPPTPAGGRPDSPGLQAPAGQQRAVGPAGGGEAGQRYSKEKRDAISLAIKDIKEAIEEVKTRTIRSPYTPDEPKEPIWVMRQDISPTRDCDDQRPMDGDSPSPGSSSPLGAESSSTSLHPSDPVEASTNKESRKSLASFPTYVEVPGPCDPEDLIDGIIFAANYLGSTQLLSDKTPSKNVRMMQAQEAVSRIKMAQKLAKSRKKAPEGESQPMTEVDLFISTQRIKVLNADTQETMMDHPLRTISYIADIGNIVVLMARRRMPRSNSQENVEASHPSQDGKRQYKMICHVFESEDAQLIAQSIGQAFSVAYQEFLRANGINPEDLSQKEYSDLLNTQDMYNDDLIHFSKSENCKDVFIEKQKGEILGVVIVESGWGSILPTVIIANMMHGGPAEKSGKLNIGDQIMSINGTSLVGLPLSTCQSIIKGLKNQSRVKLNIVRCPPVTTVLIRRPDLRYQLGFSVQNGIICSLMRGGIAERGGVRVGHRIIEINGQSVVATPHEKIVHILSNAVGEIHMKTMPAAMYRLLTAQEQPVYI
- Assay type: protein assay
The source made the active and inactive calls.

Query :: What does the data say about its IC50? Entry: NNc1cc([N+](=O)[O-])cc2c1c(=O)n(Cc1ccccc1)[s+]2[O-] (centres undefined)
Result :: > 50 µM (inactive)

Query :: How about this molecule: COc1ccc(N2C(=O)CC(Sc3nnnn3-c3ccc(F)cc3)C2=O)cc1 (centres undefined)
Result :: 3.95 µM (active)

Query :: What about this molecule? COc1ccc(CC(=O)Nc2ccc(-c3nnc(-c4ccc(C)cc4)o3)cc2)cc1
Result :: > 50 µM (inactive)

Query :: What would you report for Cc1ccc(-c2nn(-c3ccccc3)cc2/C=C/C(=O)O)o1 ?
Result :: 30.9 µM (active)

----------
- MEASUREMENT_TARGET: Polyadenylate-binding protein 1 (Homo sapiens)
- Sequence (P11940 whole entry): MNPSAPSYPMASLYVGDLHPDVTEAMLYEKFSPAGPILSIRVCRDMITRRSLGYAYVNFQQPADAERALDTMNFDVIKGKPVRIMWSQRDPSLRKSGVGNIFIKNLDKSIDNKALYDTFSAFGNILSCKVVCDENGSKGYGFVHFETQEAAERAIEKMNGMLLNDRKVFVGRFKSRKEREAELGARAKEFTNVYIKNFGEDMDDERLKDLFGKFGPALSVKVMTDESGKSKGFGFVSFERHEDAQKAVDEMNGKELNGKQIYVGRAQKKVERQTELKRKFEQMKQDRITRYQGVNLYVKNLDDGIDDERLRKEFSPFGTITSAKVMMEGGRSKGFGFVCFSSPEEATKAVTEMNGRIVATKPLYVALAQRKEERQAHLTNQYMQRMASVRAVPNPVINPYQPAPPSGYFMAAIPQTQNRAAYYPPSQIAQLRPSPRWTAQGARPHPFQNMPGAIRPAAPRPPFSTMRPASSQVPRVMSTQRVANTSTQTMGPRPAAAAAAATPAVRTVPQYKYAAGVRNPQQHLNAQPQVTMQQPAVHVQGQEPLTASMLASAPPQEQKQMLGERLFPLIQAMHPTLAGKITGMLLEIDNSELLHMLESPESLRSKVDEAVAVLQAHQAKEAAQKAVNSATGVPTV
- METHOD_NOTES: PABP1 MLLE–PAM2 binding inhibitor potency, dose response, biochemical, fluorescence polarization, FITC-PAM2 peptide (AID 602259)
- Format: functional
- DETAILS: read-out: IC50_Mean
The source made the active and inactive calls.
READOUT: IC50

Query :: Entry CCOC(=O)C1CCCN(C(=O)c2ccccc2SCCOC)C1 (configuration not stated) has what IC50?
Result :: > 66 µM (inactive)

Query :: Same question, N#CCCN(C(=O)CSc1ccc2c(c1)OCCO2)c1ccccc1 this time
Result :: > 66 µM (inactive)

Query :: Please answer likewise for c1ccc2c(c1)nnn2Cc1nnc2sc(-c3ccc4c(c3)OCCO4)nn12
Result :: > 66 µM (inactive)

Query :: Subsequent entry: O=C(NC(Sc1ccc(Cl)cc1)C(=O)O)c1ccccc1 (configuration not stated)
Result :: > 66 µM (inactive)

Query :: And what about the compound Cc1nc(N)nc(S)c1CCCNc1ccccc1 ?
Result :: > 66 µM (inactive)

Query :: Same question, N=c1c(C(=O)NCc2ccco2)cc2c(=O)n3ccccc3nc2n1CC1CCCO1 (configuration not stated) this time
Result :: 39.5 µM (inactive)

Query :: Try this compound too: CC(=O)c1c(Cl)nc2cccc3c2c1-c1ccccc1C3=O
Result :: 55.6 µM (inactive)
